What follows is literature data on IC50 for Protease (Human immunodeficiency virus 1).

| Compound structure | Study system | Endpoint value |
| --- | --- | --- |
| CC(C)CN(C[C@@H](O)[C@H](Cc1ccccc1)NC(=O)[C@]12CC[C@@H](C)[C@H](C)[C@H]1C1=CC[C@@H]3[C@@]4(C)CC[C@H](O)C(C)(C)[C@@H]4CC[C@@]3(C)[C@]1(C)CC2)S(=O)(=O)c1ccc([N+](=O)[O-])cc1 | Protease (Human immunodeficiency virus 1) | 0.4 µM |

Item CCCC(=O)O[C@H]1CC[C@]2(C)[C@H]3CC=C4[C@@H]5CC(C)(C)CC[C@]5(C(=O)NCCCC(=O)N[C@H](C(=O)O)C(C)C)CC[C@@]4(C)[C@]3(C)CC[C@H]2C1(C)C was tested on Protease (Human immunodeficiency virus 1); the reported IC50 is > 50 µM

Query CC1(C)CC[C@]2(C(=O)NCCCCCCCCCCC(=O)NCC(=O)O)CC[C@]3(C)C(=CC[C@@H]4[C@@]5(C)CC[C@H](OC(=O)c6ccccc6)C(C)(C)[C@@H]5CC[C@]43C)[C@@H]2C1 on Protease (Human immunodeficiency virus 1); IC50 returned: > 50 µM

// IC50 (Protease (Human immunodeficiency virus 1)) for COC(=O)N[C@H](C(=O)Nc1ccccc1CC[C@@H]1CN[C@H](COC(=O)NCc2ccccc2)CO1)C(c1ccccc1)c1ccccc1 = 0.0061 µM

Case CC(=O)O[C@H]1CC[C@]2(C)[C@H]3CC=C4[C@@H]5CC(C)(C)CC[C@]5(C(=O)NCCCCCCCCCCC(=O)O)CC[C@@]4(C)[C@]3(C)CC[C@H]2C1(C)C , Protease (Human immunodeficiency virus 1), IC50 recorded as > 50 µM

Recorded IC50 for C[C@H](NC(=O)CCCNC(=O)[C@]12CCC(C)(C)C[C@H]1C1=CC[C@@H]3[C@@]4(C)CC[C@H](OC(=O)CCCC(=O)O)C(C)(C)[C@@H]4CC[C@@]3(C)[C@]1(C)CC2)C(=O)O on Protease (Human immunodeficiency virus 1) was 6.6 µM

IC50 for Protease (Human immunodeficiency virus 1) with input COc1ccc(S(=O)(=O)N(CC(C)C)C[C@@H](O)[C@H](Cc2ccccc2)NC(=O)Cn2cnc3cncnc32)cc1 equals 0.24 µM

// IC50 (Protease (Human immunodeficiency virus 1)) for CCC(=O)O[C@H]1CC[C@]2(C)[C@H]3CC=C4[C@@H]5CC(C)(C)CC[C@]5(C(=O)NCCCCCCCCCCC(=O)NCC(=O)O)CC[C@@]4(C)[C@]3(C)CC[C@H]2C1(C)C = > 50 µM

Protease (Human immunodeficiency virus 1) data for CCCC(=O)O[C@H]1CC[C@]2(C)[C@H]3CC=C4[C@@H]5CC(C)(C)CC[C@]5(C(=O)NCCCCCCCCCCC(=O)N[C@@H](C)C(=O)O)CC[C@@]4(C)[C@]3(C)CC[C@H]2C1(C)C ; its IC50: > 50 µM

CC(C)c1nc(CN(C)C(=O)N[C@@H](CCN)C(=O)N[C@H](CC[C@H](Cc2ccccc2)NC(=O)OCc2cncs2)Cc2ccccc2)cs1 tested on Protease (Human immunodeficiency virus 1) gave IC50: > 30 µM

Considering CCCC(=O)O[C@H]1CC[C@]2(C)[C@H]3CC=C4[C@@H]5CC(C)(C)CC[C@]5(C(=O)NCCCCCC(=O)N[C@H](C(=O)O)C(C)C)CC[C@@]4(C)[C@]3(C)CC[C@H]2C1(C)C , its IC50 with Protease (Human immunodeficiency virus 1) was recorded as > 50 µM

* * *

Field IC50: reported value for Protease (Human immunodeficiency virus 1); entries drawn from several documents.
Could you give me the number in nM? Just the number is fine.

Worked cases, IC50 given:
| Compound structure | Endpoint value |
| --- | --- |
| CC1(C)CC[C@]2(C(=O)NCCCCCC(=O)O)CC[C@]3(C)C(=CC[C@@H]4[C@@]5(C)CC[C@H](OC(=O)CCCC(=O)O)C(C)(C)[C@@H]5CC[C@]43C)[C@@H]2C1 | 1000 |
| COCCN(CC(=O)N[C@@H](Cc1ccccc1)[C@H](O)CN(CC(C)C)S(=O)(=O)c1ccc([N+](=O)[O-])cc1)[C@H]1CCOC1 | 17.7 |
| N[C@H](C(=O)Nc1cncc(F)c1CC[C@@H]1CN[C@H](COC(=O)NCC(F)(F)F)CO1)[C@@H](c1ccc(Cl)cc1)c1cc(F)cc(F)c1 | 0.8 |
| CC(C)[C@H](NC(=O)N(Cc1cscn1)C1CC1)C(=O)N[C@H](CC[C@H](Cc1ccccc1)NC(=O)OCc1cncs1)Cc1ccccc1 | 3590 |

# value of IC50, Protease (Human immunodeficiency virus 1), item O=C(O)CCCC#CC#C/C=C/CC/C=C/C#C/C=C/Br = 6000

// molecule C[C@H]1[C@H](C)CC[C@]2(C(=O)O)CC[C@]3(C)C(=CC[C@@H]4[C@@](C)(CC(=O)O)[C@H](C(C)(C)C(=O)O)CC[C@]43C)[C@H]12 , assay Protease (Human immunodeficiency virus 1), IC50 value: 17600

* * *

Compiled notes: published pIC50 values involving Protease (Human immunodeficiency virus 1).
Expect pIC50 as a plain number equal to -log10 of the molar concentration.

Example entries and their recorded answers appear below.
| Compound structure | pIC50 |
| --- | --- |
| CC(C)[C@H](NC(=O)COc1cccc2ccccc12)C(=O)N[C@@H](Cc1ccccc1)[C@@H](O)[C@H](O)[C@H](Cc1ccccc1)NC(=O)[C@@H](NC(=O)COc1cccc2ccccc12)C(C)C | 7.42 |
| CC(C)CN(C[C@@H](O)[C@H](Cc1ccccc1)NC(=O)Cn1cc(F)c(N)nc1=O)S(=O)(=O)c1ccc([N+](=O)[O-])cc1 | 6.32 |
| CC(C)[C@H](NC(=O)CCCNC(=O)[C@]12CCC(C)(C)C[C@H]1C1=CC[C@@H]3[C@@]4(C)CC[C@H](OC(=O)CCCC(=O)O)C(C)(C)[C@@H]4CC[C@@]3(C)[C@]1(C)CC2)C(=O)O | 4.70 |

Then there is this molecule:
Note to self: pIC50 of COc1ccc(S(=O)(=O)N(CC(C)C)C[C@@H](O)[C@H](Cc2ccccc2)NC(=O)O[C@H]2CO[C@H]3[C@@H]2OC[C@H]3O)cc1 with Protease (Human immunodeficiency virus 1) was 10.00

* * *

Please find below pIC50 data on Protease (Human immunodeficiency virus 1) compiled from the literature.
Scale for pIC50: -log10 of concentration given in mol/L; no unit attached.

Recorded results for 4 molecules are shown here.
| Compound structure | pIC50 |
| --- | --- |
| COc1ccc(C[C@H](NC(=O)[C@@H](NC(=O)[C@H](Cc2cccc3ccccc23)CS(=O)(=O)C(C)(C)C)C(C)C)[C@@H](O)[C@H](O)[C@H](Cc2ccc(OC)cc2OC)NC(=O)[C@@H](NC(=O)[C@H](Cc2cccc3ccccc23)CS(=O)(=O)C(C)(C)C)C(C)C)c(OC)c1 | 7.74 |
| CC(C)CN(C[C@@H](O)[C@H](Cc1ccccc1)NC(=O)CN(CC(N)=O)[C@H]1CCOC1)S(=O)(=O)c1ccc(OC(F)(F)F)cc1 | 6.28 |
| CCC(=O)O[C@H]1CC[C@]2(C)[C@H]3CC=C4[C@@H]5CC(C)(C)CC[C@]5(C(=O)NCCCCCC(=O)N[C@@H](C)C(=O)O)CC[C@@]4(C)[C@]3(C)CC[C@H]2C1(C)C | 4.51 |
| COc1ccc(C[C@H](CS(=O)(=O)C(C)(C)C)C(=O)N[C@H](C(=O)N[C@@H](Cc2ccccc2)[C@@H](O)[C@H](O)[C@H](Cc2ccccc2)NC(=O)[C@@H](NC(=O)[C@H](Cc2ccc(OC)cc2)CS(=O)(=O)C(C)(C)C)C(C)C)C(C)C)cc1 | 9.47 |

Test item COC(=O)[C@@H](NC(=O)[C@]12CCC(C)(C)C[C@@H]1C1=CC[C@@H]3[C@@]4(C)CC[C@H](OC(C)=O)C(C)(C)[C@@H]4CC[C@@]3(C)[C@]1(C)CC2)C(C)C ; Protease (Human immunodeficiency virus 1); reported pIC50 was 4.67

Known value: Protease (Human immunodeficiency virus 1) pIC50 of the molecule CCCCCCC(=O)N[C@@H](CSCCOCCOCCSC[C@H](NC(=O)CCCCCC)C(=O)N[C@H](C(=O)N[C@@H](Cc1ccccc1)C(N)=O)[C@H](C)CC)C(=O)N[C@@H](Cc1ccccc1)C(=O)O equals 5.92

* * *

Literature compilation of pIC50 measurements on Protease (Human immunodeficiency virus 1).
FYI, pIC50 means -log10 of a concentration in mol per litre.

| Compound | Endpoint value |
| --- | --- |
| CC1(C)CCC[C@](C)([C@H]2CC[C@]3(C)[C@@H]2C(=O)C[C@@H]2[C@@]4(C)CC[C@H](OC(=O)CC(C)(C)C(=O)O)C(C)(C)[C@@H]4[C@@H](OC(=O)CC(C)(C)C(=O)O)C[C@]23C)O1 | 4.96 |
| COc1ccc(S(=O)(=O)N(CC(C)C)C[C@@H](O)[C@H](Cc2ccccc2)NC(=O)CN(CC(=O)N2CCOCC2)[C@H]2CCOC2)cc1 | 7.36 |
| CC1(C)C(=O)C(O)=C[C@]2(C)[C@H]3C(=O)C[C@@H]4[C@H]5C[C@@](C)(C(=O)O)CC[C@]5(C)CC[C@@]4(C)[C@]3(C)CC[C@@H]12 | 4.80 |
| CC1(C)CCC[C@](C)([C@H]2CC[C@]3(C)[C@@H]2[C@H](O)C[C@@H]2[C@@]4(C)C[C@](O)(C(=O)O)C(C)(C)[C@@H]4C(=O)C[C@]23C)O1 | 4.52 |

Next:
Here Cc1nc2cncnc2n1CC(=O)N[C@@H](Cc1ccccc1)[C@H](O)CN(CC(C)C)S(=O)(=O)c1ccc([N+](=O)[O-])cc1 was tested on Protease (Human immunodeficiency virus 1), and its pIC50 came to 6.24
